B1: POU domain, class 3, transcription factor 2, residues 262 to 338; numbered along this chain, P20265 (parent)
chain: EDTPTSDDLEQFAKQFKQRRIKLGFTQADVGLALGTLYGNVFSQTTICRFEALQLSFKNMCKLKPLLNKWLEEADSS

Variants of: B1
ASSAY: abundance fitness (aPCA) (normalised: wild type 0, dead -1); higher = more abundant; growth selection in yeast, the domain comes from the species named
COND: Homo sapiens
# abundance fitness binned as bin 0: < -0.3; bin 1: ≥ -0.3 and < -0.06; bin 2: ≥ -0.06

Solved cases (3 shown):
{"MUTATION_KEY": "R20I", "ASSIGNED_CATEGORY": "bin 0"}
{"MUTATION_KEY": "L32V", "ASSIGNED_CATEGORY": "bin 0"}
{"MUTATION_KEY": "A33Q", "ASSIGNED_CATEGORY": "bin 2"}

Now, please, on to the next variant.
Which class does L66R fall in?
bin 1

Data origin: the Human Domainome abundance scans (Beltran et al. 2025)
